# target: Ras-related protein Rab-7a (dog), GTP binding
# test.protocol: Rab7 GTP binding inhibitors, potency, dose response, biochemical, wildtype, multiplex bead flow cytometry (AID 1336)
# measurement.conditions: bead-based flow cytometry, fluorescent GTP binding to Rab7
EC50 values for the compounds below.

Record excerpt, results attached:
COC(=O)c1cccnc1SCCc1ccccc1; 14.2 µM
O=C(O)c1ccccc1Sc1ncnc2sc3c(c12)CCC3; 2.62 µM
Cc1cc(C(=O)Oc2ccccc2C(=O)O)c(C)o1; 0.81 µM

INPUT: Param item = O=C(O)c1ccccc1NCCc1ccc(Cl)cc1 ; retrieve measured EC50.
OUTPUT: 0.339 µM

INPUT: GET /values?readout=EC50&item= O=C(O)/C=C/c1cn(Cc2ccccc2)nc1-c1cccs1
OUTPUT: 2.35 µM

INPUT: Given the entry O=C1CN=C(c2ccccc2)c2cc(Br)ccc2N1Cc1cc(=O)n2ccccc2n1 , report its measured EC50.
OUTPUT: 2.71 µM

Ref: PubChem BioAssay AID1336
